These entries and their values trace back to patent US20230024096A1.

Property: Emax; scope: individual compounds
Molecular target: SMARCA2 (Homo sapiens)
Construct: endogenous in cells; host or cells: HT1080 (CRISPR HiBiT knock-in clone, generated in house)
Sequence (P51531 whole entry): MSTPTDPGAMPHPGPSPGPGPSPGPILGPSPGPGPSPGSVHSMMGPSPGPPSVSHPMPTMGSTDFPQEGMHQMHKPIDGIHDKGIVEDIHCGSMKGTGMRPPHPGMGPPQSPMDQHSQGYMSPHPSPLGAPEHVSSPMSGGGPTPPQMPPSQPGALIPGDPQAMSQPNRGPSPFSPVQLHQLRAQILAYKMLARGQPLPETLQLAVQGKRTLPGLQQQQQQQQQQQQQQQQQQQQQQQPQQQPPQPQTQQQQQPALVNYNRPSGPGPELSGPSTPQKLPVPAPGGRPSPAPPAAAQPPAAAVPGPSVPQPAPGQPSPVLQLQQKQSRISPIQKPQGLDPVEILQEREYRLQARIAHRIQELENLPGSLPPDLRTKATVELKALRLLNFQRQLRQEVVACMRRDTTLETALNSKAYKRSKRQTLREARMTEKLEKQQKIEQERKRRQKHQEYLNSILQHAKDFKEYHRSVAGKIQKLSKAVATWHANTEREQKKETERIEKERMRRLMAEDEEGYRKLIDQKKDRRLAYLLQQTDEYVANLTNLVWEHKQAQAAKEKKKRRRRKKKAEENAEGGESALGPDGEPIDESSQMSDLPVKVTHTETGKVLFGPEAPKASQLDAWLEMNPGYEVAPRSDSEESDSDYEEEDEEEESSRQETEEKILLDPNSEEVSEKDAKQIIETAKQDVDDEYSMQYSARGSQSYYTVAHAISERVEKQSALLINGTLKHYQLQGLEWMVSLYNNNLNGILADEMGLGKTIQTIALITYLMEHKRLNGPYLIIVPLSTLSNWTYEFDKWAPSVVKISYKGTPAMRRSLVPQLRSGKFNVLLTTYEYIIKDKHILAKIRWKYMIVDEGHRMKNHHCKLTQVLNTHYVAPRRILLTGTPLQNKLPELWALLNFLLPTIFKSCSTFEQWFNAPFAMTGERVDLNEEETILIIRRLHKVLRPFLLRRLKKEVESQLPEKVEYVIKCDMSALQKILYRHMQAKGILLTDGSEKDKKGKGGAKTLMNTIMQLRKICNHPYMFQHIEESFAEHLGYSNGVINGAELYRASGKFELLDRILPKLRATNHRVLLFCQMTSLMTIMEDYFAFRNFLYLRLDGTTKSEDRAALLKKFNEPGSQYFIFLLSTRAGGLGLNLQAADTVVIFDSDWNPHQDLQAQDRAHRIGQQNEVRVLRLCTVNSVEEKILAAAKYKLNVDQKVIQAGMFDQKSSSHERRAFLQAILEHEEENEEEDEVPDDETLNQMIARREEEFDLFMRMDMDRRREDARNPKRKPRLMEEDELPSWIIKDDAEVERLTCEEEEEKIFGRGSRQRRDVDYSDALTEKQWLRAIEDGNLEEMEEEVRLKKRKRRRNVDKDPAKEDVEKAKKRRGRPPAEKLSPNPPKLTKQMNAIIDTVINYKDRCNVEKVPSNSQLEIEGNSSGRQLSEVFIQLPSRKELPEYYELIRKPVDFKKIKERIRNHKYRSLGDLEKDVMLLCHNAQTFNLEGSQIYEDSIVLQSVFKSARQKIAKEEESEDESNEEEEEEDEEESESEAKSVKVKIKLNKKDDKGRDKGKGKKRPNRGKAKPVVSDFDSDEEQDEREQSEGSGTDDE
Assay: SMARCA2 HiBiT degradation assay (cellular)
Type: cell-based
Settings: A549, 6 h incubation; Emax = amount of residual protein remaining in the cell following compound treatment; table head names A549

compound	unit_label	Emax
Nc1nnc(-c2ccccc2O)cc1N1CC2CCC(C1)N2c1cccc(OCCN2CCN(C(=O)CCC(=O)N3CCN(Cc4cccc5c4C(=O)N(C4CCC(=O)NC4=O)C5=O)CC3)CC2)c1 (racemic)	%	28
Nc1nnc(-c2ccccc2O)cc1N1CC2CCC(C1)N2c1cccc(OCCN2CCN(C(=O)CCC3CCN(c4cccc5c4C(=O)N(C4CCC(=O)NC4=O)C5=O)CC3)CC2)c1 (racemic)	%	50
Nc1nnc(-c2cc(F)ccc2O)cc1N1C2CCC1CN(c1cccc(OCCN3CCN(C(=O)C4CCN(c5ccc6c(c5)C(=O)N(C5CCC(=O)NC5=O)C6=O)CC4)CC3)c1)C2 (centres unmarked)	%	74
Nc1nnc(-c2ccccc2O)cc1N1CCC2(CC1)CN(C(=O)CCC1CCN(c3cccc4c3C(=O)N(C3CCC(=O)NC3=O)C4=O)CC1)CCO2 (centres unmarked)	%	53
Nc1nnc(-c2ccccc2O)cc1OC1CCCN(c2ccc(N3CCN(C(=O)CCCCCCCCCn4cc(CNc5cccc6c5C(=O)N(C5CCC(=O)NC5=O)C6=O)nn4)CC3)cc2)C1 (centres unmarked)	%	48
Nc1nnc(-c2ccccc2O)cc1N1CCN(c2ccccc2)C(C(=O)NC2CCN(C(=O)C3CCN(c4ccc5c(c4)C(=O)N(C4CCC(=O)NC4=O)C5=O)CC3)CC2)C1 (centres unmarked)	%	48
Nc1nnc(-c2ccccc2O)cc1N1CCC(C(=O)N2CCN(C(=O)C3CCN(c4ccc5c(c4)C(=O)N(C4CCC(=O)NC4=O)C5=O)CC3)CC2)(c2ccccc2)CC1 (centres unmarked)	%	28
Nc1nnc(-c2ccccc2O)cc1OC1CCCN(c2ccc(N3CCN(CC4CN(C(=O)CCCCn5cc(COc6cccc7c6C(=O)N(C6CCC(=O)NC6=O)C7=O)nn5)C4)CC3)cc2)C1 (racemic)	%	63
CC(Oc1cccc2c1C(=O)N(C1CCC(=O)NC1=O)C2=O)c1cn(CCCN2CCN(C(=O)CCN3CCN(c4ccc(N5CCC[C@H](Oc6cc(-c7ccccc7O)nnc6N)C5)cc4)CC3)CC2)nn1 (mixture of isomers)	%	45
Nc1nnc(-c2ccccc2O)cc1OC1CCCN(c2ccc(N3CCN(C(=O)CCCCCCCCN4CCC(Oc5ccc6c(c5)C(=O)N(C5CCC(=O)NC5=O)C6=O)CC4)CC3)cc2)C1 (centres unmarked)	%	61
Nc1nnc(-c2ccccc2O)cc1N1CC2CCC(C1)N2c1cccc(CN2CCN(C(=O)CC3CCN(c4ccc5c(c4)C(=O)N(C4CCC(=O)NC4=O)C5=O)CC3)CC2)c1 (racemic)	%	45
Nc1nnc(-c2ccccc2O)cc1O[C@@H]1CCCN(c2ccc(N3CCN(C(=O)CCCCCCCCn4cc(CNc5cccc6c5C(=O)N(C5CCC(=O)NC5=O)C6=O)nn4)CC3)cc2)C1 (mixture of isomers)	%	33
Nc1nnc(-c2ccccc2O)cc1N1CC2CCC(C1)N2c1cccc(OCCN2CCN(C(=O)CN3CCC(c4ccc(OC5CCC(=O)NC5=O)cc4)CC3)CC2)c1 (racemic)	%	31
Nc1nnc(-c2ccccc2O)cc1N1CC2CCC(C1)N2c1cccc(OCCN2CCN(C(=O)N3CCN(c4ccc(OC5CCC(=O)NC5=O)cc4)CC3)CC2)c1 (racemic)	%	54
Nc1nnc(-c2ccccc2O)cc1N1CC2CCC(C1)N2c1cccc(OCCN2CCN(CCCC3CCN(c4ccc5c(c4)C(=O)N(C4CCC(=O)NC4=O)C5=O)CC3)CC2)c1 (racemic)	%	8
Nc1nnc(-c2ccccc2O)cc1N1CCN(c2cccc(OCCN3CCN(C(=O)C4CCN(c5ccc6c(c5)C(=O)N(C5CCC(=O)NC5=O)C6=O)CC4)CC3)c2)C2(CCC2)C1 (centres unmarked)	%	30
Nc1nnc(-c2ccccc2O)cc1N1CC2CCC(C1)N2c1cccc(OCCN2CCN(C(=O)C3CCN(c4ccc5c(c4)C(=O)N(C4CCC(=O)NC4=O)C5=O)CC3)CC2)c1 (racemic)	%	14
Nc1nnc(-c2ccccc2O)cc1N1CCC(C(=O)N2CC3(CCN(C(=O)COc4ccc5c(c4)C(=O)N(C4CCC(=O)NC4=O)C5=O)C3)C2)(c2ccccc2)CC1 (centres unmarked)	%	62
Nc1nnc(-c2ccccc2O)cc1OC1CCCN(c2ccc(N3CCN(CCCCCCCCCn4cc(CCCNc5cccc6c5C(=O)N(C5CCC(=O)NC5=O)C6=O)nn4)CC3)cc2)C1 (centres unmarked)	%	29
Nc1nnc(-c2ccccc2O)cc1N1CC2CCC(C1)N2c1cccc(OCCN2CCN(C(=O)C3CC4(C3)CN(c3ccc5c(c3)C(=O)N(C3CCC(=O)NC3=O)C5=O)C4)CC2)c1 (racemic)	%	53
